# measured.target: T1, TJP3_3, O95049
# T1 sequence (O95049 375-456, limits assumed, looked up): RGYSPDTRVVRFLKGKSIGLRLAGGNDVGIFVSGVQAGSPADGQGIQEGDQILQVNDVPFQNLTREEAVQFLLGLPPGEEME
# assay.name: holdup assay
# Set-up: key: below the threshold = too weak to quantify, mostly under pKd 3.1 to 4
# run.parameters: plain residues with an end cap or a label only (N-terminal biotin on a linker: ttds)
measurement.label: pKd

(Q) Determine from records and report pKd for GRLLGLETNV [ARHGEF26, Q96DR7]
(A) below the threshold

(Q) Determine from records and report pKd for SHSSKGETAV [FZD7, O75084]
(A) below the threshold

(Q) Determine from records and report pKd for GARVSKETPL [MAPK12, P53778]
(A) below the threshold
